assay summary: soluble on expression in E. coli; label from the status in PepcDB or PDB records
endpoint label: soluble on expression in E. coli

Examples with answers:
input sequence	soluble on expression in E. coli
MSLKLIVKIGLIVLLLMFNYQGVDADVVSSAIDRYATTTEHQDNMASDHGTLDTMSFTHSLLTGQQQVLAKLMPDDLRIRRAEELQQNFLKILIGRFSLREEILATDRAKIFPSNPIHCVSPACHYFVFTLRRILIEGHHHHHH	not soluble
MSLAANMYRVGDYVYFENSSSNPYLIRRIEELNKTANGNVEAKVVCFYRRRDISSTLIALADKHATLSVCYKAGPGADNGEEGEIEEEMENPEMVDLPEKLKHQLRHRELFLSRQLESLPATHIRGKCSVTLLNETESLKSYLEREDFFFYSLVYDPQQKTLLADKGEIRVGNRYQADITDLLKEGEEDGRDQSRLETQVWEAHNPLTDKQIDQFLVVARSVGTFARALDCSSSVRQPSLHMSAAAASRDITLFHAMDTLHKNIYDEGHHHHHH	not soluble
MGSDKIHHHHHHMGLLLKTAASPFACSSGMQNFIANPELESYLRLNRAACGEWTLALQDLLGCSGLACDLSRPKEEVGSLSALGVGGGLVAALSVRQGLELQHCRLESVLLVFPVQGHCELLSDGAAANTLLPFQLILPGQTFSLRVTAESRLLLLMPAEQPQAVQLAAATSEAITLSIQRFLYQAGFLQDHHQGCQAAETVLREVREILAGSSGVTKVTEAVPEPDRRLLKAISKIRTEPDWPFDLQELSSHAGVSERNLYYLMKRQTGMTPYRYYQRCRLIRVRRRLVDCQCAVPHISRYAGDEGFSHFGRFAALYREHFGELPSETVQWRRRLQAQELLAPALS	not soluble
MQRHPTPNARNSLWRWTDAKHPLRVALNYVVIVLARISPSLHAKNWLLARIGVTVGDGVAWGLESTPDVFWPELVTVGDDAIIGYDATLLCHEFLHDEYRTGAVVVEDRAMIGAGAVVLPGVTIGADAQVAANSLVTADVPPGETVAGVPLEHHHHHH	not soluble
GSQITGTCPSGCSGDCYPECPPGCCGQVNLN	soluble
MGSDKIHHHHHHMKHESTKIPLVIFMHIPKTGGITLRNILDQQYRSEHILRLPQKNKLDNLLQKKGANIKKLQCVYGHHRFGVHEYFQQPFTYITMLRHPVERIISTYYFILQNERNRMHQKVKPLTFEQFVQSTDPDLQVPLTNHQTRYLSGERKPNLNKALQHMDTHFSVVGITELYNESLFIMKKKLGWDHISYQKKNVTYYRYRQTDIGLDTIEIIKRKNPLDLHLYETAKEKLQEHIKRLDSGARKELQQFLQDQNGFGPHG	not soluble

Entry MSLTPEIPPKNFTPHLPEDYDARISGVLPYYSSFHQETINLVKSLPSSPKIWMDTGCGTGSLINKAIEEFLDTKFLLLDPSESMLEQAKGKLSFYPDGKVEFLKASSTQEFSQELEEKPDVITAIQCHHYLSLEDRSRATRVCYNLLKEGGIYITFENIRPLTEEGVAVGKRYWGKFQSLHGRKEKEIQTHLERFDTEYFPITVEEHLKLLRDTGFRTVELFWYSYMQAGFYCIKEGHHHHHH — recorded soluble on expression in E. coli = soluble

Reported soluble on expression in E. coli for MKIKSIEPTPSPNTMKVILTEELPAGKSNNYKPEQAEGAPLVIAEILKIDGVKGVYHVADFLAVERNARYDWKDILPQVRTAFGMESAESAEENRSDQESFGEVKVFVQMFSGIPMQVKLTDGEREERFGLPERFQQAILKLRSEASNVVFERAWKEQGVRFGDFDEIGHDVTEELQAAYSDERLKRLTEAAAQGKGEAKQAVQRKAYKVTLDMLDDEDWKKRYAHLEQMDPKEEDIPVLQKALDDPKVSIRRQAVVYLGMIETPDVLPLLYKALEDKAVSVRRTAGDCLSDIGDPQAIPAMIKSLSDSSKLVRWRAAMFLYEVGDESAIEALRAAEDDPEFEVSLQVKMALERIEHGEEAKGSVWKQMTESRKKGE was soluble

Given item MSINVDEFQCYRIPNVYVQWYDLEPTIHWLTGGNSNSRQIQEMDQKKKKIRSTSAYALFFRERQSLEKRAAPYATFGQISQKIARQWDSLTEEEKKAYKQRCEKNRKTSIANAVEEKARQLLTASKFQ , the value recorded as its soluble on expression in E. coli is not soluble

So for MSLDHFQIDHIAIAVPSLNTSLPLFEQALQATASHEERLPHHHINAVFINGRGVGYELIEPHPSNVSMQRFLAKQNNRPAFHHIAFSVANIETAIGMLKEKHVRLTSELPLIGSFGRKVAFIHPSSTGGLLVELCEGKTEGHHHHHH , the logged soluble on expression in E. coli turned out to be soluble

Noted for MLGGKGRPSGVGGYRILVTTSRRPSPRIRSFVKDLSATIPGAFRFTRGHYSMEELAREAIIRGADRIVVVGERRGNPGIIRVYAVEGPERPDNIVSFIVKGVSLSRERRWGLPSLRGGEVLVARPLDSGVAVEFADAFVIAFHARLKPPEAAGYVEAVIESLDARTVAVTFRYGGAPVGPMLRLGKPAEMVKRGRRVAAALEHHHHHH : its soluble on expression in E. coli reads not soluble

Query MGSDKIHHHHHHMNHTSADTTLRAFAQLIAEGTCLPAEERAPGQLKTGVDLGTANIVLSVVDANNRPVTGAMFPSTVVRDGIVVDYVGAVSVVRRLKAELEDRLGCPLTFAGTAIPPGILAGNVKAIANVVEAAGFEVADVSDEPTAASRVLGLREGAVVDVGGGTTGISILKNGEVVFTDDEATGGTHMTLVLAGAHGVSFEEAEAMKKDTAAARDVFAVVQPVVEKMASIVKRCLKGYDVETVYVVGGACTFDQFEQVFRKEIGLTIVKPAEPLLVTPLGIAMYGATPGEGAL yields soluble on expression in E. coli of not soluble

Summary for this sequence, MGSDKIHHHHHHMKNTELEQLINEKLNSAAISDYAPNGLQVEGKETVQKIVTGVTASQALLDEAVRLGADAVIVHHGYFWKGESPVIRGMKRNRLKTLLANDINLYGWHLPLDAHPELGNNAQLAALLGITVMGEIEPLVPWGELTMPVPGLELASWIEARLGRKPLWCGDTGPEVVQRVAWCTGGGQSFIDSAARFGVDAFITGEVSEQTIHSAREQGLHFYAAGHHATERGGIRALSEWLNENTDLDVTFIDIPNPA : soluble on expression in E. coli is not soluble
